Source of measurements: patent US10781189B2

Measured activation at 0.1 µM accompanies every entry in the list below.
# target-entity: Recombinant mouse PD-L1 (Mus musculus, UniProt Q9EP73)
# Construct: Fc (Fc chimera); purchased R&D Systems 1019-B7-100
# Sequence (Q9EP73 with tags, fused parts or gaps limits assumed): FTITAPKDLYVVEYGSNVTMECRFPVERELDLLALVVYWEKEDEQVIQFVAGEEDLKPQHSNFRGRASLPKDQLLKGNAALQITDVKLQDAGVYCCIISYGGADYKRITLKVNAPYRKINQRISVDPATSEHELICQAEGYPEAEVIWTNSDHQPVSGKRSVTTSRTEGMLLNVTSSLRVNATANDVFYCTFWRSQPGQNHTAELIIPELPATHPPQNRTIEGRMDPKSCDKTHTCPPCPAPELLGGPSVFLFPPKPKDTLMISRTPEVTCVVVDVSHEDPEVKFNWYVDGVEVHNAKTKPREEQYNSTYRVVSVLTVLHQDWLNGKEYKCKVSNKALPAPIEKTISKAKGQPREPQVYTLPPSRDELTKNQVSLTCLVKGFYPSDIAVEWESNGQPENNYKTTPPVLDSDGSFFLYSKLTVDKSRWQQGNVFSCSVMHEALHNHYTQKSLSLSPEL
# experiment: Rescue of mouse splenocyte proliferation in the presence of recombinant PD-L1 (CFSE proliferation assay)
# Type: cell-based
# details: 100 nM compound; CFSE-labelled C57 BL6 mouse splenocytes + anti-CD3/CD28 + PD-L1 (100 ng/mL), 72 h; normalised to stimulated splenocytes as 100%; read-out: Percent rescue of splenocyte proliferation (@100 nM)
Please respond with the number in % and leave the unit unwritten.

Return reported activation at 0.1 µM; argument: CC(O)[C@H](NC(=O)N[C@@H](CC(N)=O)c1nc([C@@H](N)CCCCN)no1)C(=O)O (stereo partly drawn)
48

For N[C@@H](Cc1ccc(O)cc1)c1noc([C@@H]2CCCN2C(=O)N[C@@H](Cc2ccc(O)cc2)C(=O)O)n1 then?
91

CC(O)[C@H](N)c1noc([C@H](Cc2ccc(O)cc2)NC(=O)N2CCC[C@H]2C(=O)O)n1 (stereo partly drawn) , same question.
99
